- Test system: Bacillus subtilis
- Assay: cleaved RNA product abundance (RNA/gDNA barcode ratio) relative to median wild-type variant (ratio to wild type); higher = more accumulation of the downstream cleavage product
- Condition Context: experiment (reporter, strain, medium): exp 2b: truncated aprE reporter, strain BJT200; cleavage site: cggR-gapA (positions -7 to +36 mutated)
# cleaved RNA product abundance per entry
Property Name: cleaved RNA product abundance

{"columns": ["Sequence Input", "Tested On", "Value"],
 "data": [
  ["ACAGACGAAGGAGCCGCAAAGAACTTATTAAAGGATGAATAATCCCTCAATATAAATATCTCTCACTTATTTAAA", "Bacillus subtilis", 0.166],
  ["ACAGACGAAGGAGCCGCAAAGAAGTTATTAAGGGATGCATAATCCCTCAATATAAATATCTCTCACTTATTTAAA", "Bacillus subtilis", 0.856],
  ["ACAGACGAAGGAGCCGCAAAGAAGTTATTAAGTGATGAATAATCCCTAAATATAAATATCTCTCACTTATTTAAA", "Bacillus subtilis", 0.143],
  ["ACAGACGAAGGAGCCGCAAAGAAGTTATTAAGGGATGAATAATCCATCAATGTAAATATCTCTCACTTATTTAAA", "Bacillus subtilis", 0.0896]
]}
